- Subject of test: SpLsb1
- Test description: SPOT peptide array binding signal intensity (averaged, normalized) (arbitrary units (background-subtracted, floor 0; scale differs between SH3 domains)); higher = stronger binding of the SH3 domain to the peptide
Mark Not fulfilled for SPOT peptide array binding signal intensity values under 70, and Fulfilled for everything at or above.

>>> assigned_class("TYNRTAFQIPGDQSI")
"Not fulfilled"
>>> assigned_class("YVRRRPRVRLEPLLS")
"Not fulfilled"

Lab note: next binder to report on.
Ask | Is SPOT peptide array binding signal intensity for FPPKRKPLLRPQRSD at or above 70?
Reply | Fulfilled
